System: Enterococcus sp.
Test: In vitro antibacterial evaluation: minimum inhibitory concentration (MIC), broth dilution method
Format: cell-based
Settings: broth dilution, inoculum 5×10^5 CFU/mL, 18 hours at 35° C.
Excerpt: […]
Measurement Name: MIC Enterococcus faecium (GC 2243)

# input Return the recorded MIC Enterococcus faecium (GC 2243) value; entry: N=C1NCC(C(O)C2NC(=O)C(CC3CCC(OC4OC(CO)C(OC5OC6COC7(OC6C(O)C5O)C5CC6CC(C5)CC7C6)C(O)C4O)CC3)NC(=O)C(CC3CCCCC3)NC(=O)CNC(=O)C(CO)NC(=O)C(C(O)C3CNC(=N)N3C3OC(CO)C(O)C(O)C3O)NC2=O)N1 (stereo not shown) [Example 222]
# output >64 µg/mL

====

System: Staphylococcus sp.
Experiment: In vitro antibacterial evaluation: minimum inhibitory concentration (MIC), broth dilution method
Format: cell-based
Conditions: strain GC 4541; broth dilution, 18 hours at 35° C.
Excerpt: […]
Measurement Name: MIC Staphylococcus aureus (GC 4541)
Please state the value followed by its unit.

CC(c1ccccc1)C1NC(=O)CNC(=O)C(CO)NC(=O)C(C(O)C2CNC(=N)N2C2OC(CO)C(O)C(O)C2O)NC(=O)C(C(O)C2CNC(=N)N2)NC(=O)C(Cc2ccc(OC3OC(CO)C(OC4OC(CO)C(O)C5OC(c6ccc(-c7ccsc7)cc6)OC45)C(O)C3O)cc2)NC1=O (centres unmarked) [Example 164a] :: 8 µg/mL

Now examine the next entry.
# input Under Staphylococcus sp.: report MIC Staphylococcus aureus (GC 4541) of CC(c1ccccc1)C1NC(=O)CNC(=O)C(CO)NC(=O)C(C(O)C2CNC(=N)N2C2OC(CO)C(O)C(O)C2O)NC(=O)C(C(O)C2CNC(=N)N2)NC(=O)C(Cc2ccc(OC3OC(CO)C(OC4OC5COC(c6cccc(Cl)c6)OC5C(O)C4O)C(O)C3O)cc2)NC1=O (centres unmarked) .
# output 2 µg/mL

====

System: Staphylococcus sp.
Assay: In vitro antibacterial evaluation: minimum inhibitory concentration (MIC), broth dilution method
Format: cell-based
Conditions: Staphylococcus aureus (ATCC 29213); broth dilution, 18 hours at 35° C.
Reported values of MIC Staphylococcus aureus (ATCC 29213) for individual entries
Write the number in µg/mL without appending the unit.

CCC(C)C(=O)OC1C(CO)OC(OC2C(CO)OC(Oc3ccc(CC4NC(=O)C(C(C)c5ccccc5)NC(=O)CNC(=O)C(CO)NC(=O)C(C(O)C5CNC(=N)N5C5OC(CO)C(O)C(O)C5O)NC(=O)C(C(O)C5CNC(=N)N5)NC4=O)cc3)C(O)C2O)C(O)C1O (stereo not shown) [Example 278c] :: 4

// next entry
# input Answer with the recorded MIC Staphylococcus aureus (ATCC 29213) of CC(C)CC(=O)OC1C(OC2C(CO)OC(Oc3ccc(CC4NC(=O)C(C(C)c5cccc(F)c5)NC(=O)CNC(=O)C(CO)NC(=O)C(C(O)C5CNC(=N)N5C5OC(CO)C(O)C(O)C5O)NC(=O)C(C(O)C5CNC(=N)N5)NC4=O)cc3)C(O)C2O)OC(CO)C(O)C1O (stereo not shown) [Example 264a] only.
# output 16

====

Tested on: Streptococcus sp.
Assay: In vitro antibacterial evaluation: minimum inhibitory concentration (MIC), broth dilution method
Assay type: cell-based
Settings: Streptococcus pneumoniae (GC 4565); broth dilution, 18 hours at 35° C.
Catalogue of MIC Streptococcus pneumoniae (GC 4565) values

A selection of reference data follows.
CC(c1ccccc1)C1NC(=O)CNC(=O)C(CO)NC(=O)C(C(O)C2CN(Cc3ccccc3)C(=NCc3ccccc3)N2C2OC(CO)C(O)C(O)C2O)NC(=O)C(C(O)C2CN(Cc3ccccc3)C(=NCc3ccccc3)N2Cc2ccccc2)NC(=O)C(Cc2ccc(OC3OC(CO)C(OC4OC5COC6(OC5C(O)C4O)C4CC5CC(C4)CC6C5)C(O)C3O)cc2)NC1=O (stereo not shown) :: 8 µg/mL
CC(c1ccccc1)C1NC(=O)CNC(=O)C(CO)NC(=O)C(C(O)C2CNC(=N)N2C2OC(CO)C(O)C(O)C2O)NC(=O)C(C(O)C2CNC(=N)N2)NC(=O)C(Cc2ccc3oc(SCC(=O)c4ccccc4)nc3c2)NC1=O (stereo not shown) :: 32 µg/mL
CC(c1ccccc1)C1NC(=O)CNC(=O)C(CO)NC(=O)C(C(O)C2CN(Cc3ccc(C(C)(C)C)cc3)C(=N)N2C2OC(CO)C(O)C(O)C2O)NC(=O)C(C(O)C2CNC(=N)N2)NC(=O)C(Cc2ccc(OC3OC(CO)C(OC4OC5COC6(OC5C(O)C4O)C4CC5CC(C4)CC6C5)C(O)C3O)cc2)NC1=O (stereo not shown) :: 2 to 4 µg/mL

Please turn your attention to the following entry.
# input Respond only with MIC Streptococcus pneumoniae (GC 4565) recorded for Cc1ccc(Oc2cccc(-c3nc4cc(CC5NC(=O)C(C(C)c6ccccc6)NC(=O)CNC(=O)C(CO)NC(=O)C(C(O)C6CNC(=N)N6C6OC(CO)C(O)C(O)C6O)NC(=O)C(C(O)C6CNC(=N)N6)NC5=O)ccc4o3)c2)cc1 (stereo not shown)
# output 4 µg/mL
